# TEST TARGET: hCCL2-M (Homo sapiens, UniProt P13500, P31A)
# Sequence (P13500 24-99 P31A): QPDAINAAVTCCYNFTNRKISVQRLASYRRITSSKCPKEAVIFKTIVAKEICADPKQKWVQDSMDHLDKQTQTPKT
# PROTOCOL DESCRIPTION: Flavonol fluorescence quenching titration of hCCL2 monomer
MEASUREMENT KIND: Kd (µM)

a: O=c1c(O)c(-c2ccc(O)c(O)c2)oc2cc(O)cc(O)c12 [quercetin]
b: O=c1c(O)c(-c2cc(O)c(O)c(O)c2)oc2cc(O)cc(O)c12 [myricetin]
c: O=c1c(O)c(-c2ccc(O)cc2)oc2cc(O)cc(O)c12 [kaempferol]
-- ask Ascending by Kd, please. Give the labels in the order requested.
-- reply b, a, c
(b: 0.43 µM, a: 3.6 µM, c: 25 µM)

---

# TEST TARGET: mCCL2-M (Mus musculus, UniProt P10148, P31A)
# Sequence (P10148 24-148 P31A): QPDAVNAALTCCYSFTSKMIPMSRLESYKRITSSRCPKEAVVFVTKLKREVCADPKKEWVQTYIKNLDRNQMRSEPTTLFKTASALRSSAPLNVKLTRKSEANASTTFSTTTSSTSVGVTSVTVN
# PROTOCOL DESCRIPTION: Flavonol fluorescence quenching titration of mCCL2 monomer
# Type: binding, murine
MEASUREMENT KIND: Kd (µM)

1: O=c1c(O)c(-c2ccc(O)c(O)c2)oc2cc(O)cc(O)c12
2: O=c1c(O)c(-c2ccc(O)cc2)oc2cc(O)cc(O)c12
-- ask Hi there, can you help? I need to know whether 1 or 2 has lower measured Kd. Selection: enter the item's label.
-- reply 1
(1: 3.7 µM, 2: 26 µM)

---

# TEST TARGET: mCCL2-WT (Mus musculus, UniProt P10148)
# PROTOCOL DESCRIPTION: Flavonol fluorescence quenching titration of mCCL2-WT
# Type: binding, murine
pKd: −log10 of the molar value.
MEASUREMENT KIND: pKd

1: O=c1c(O)c(-c2ccc(O)cc2)oc2cc(O)cc(O)c12
2: O=c1c(O)c(-c2ccc(O)c(O)c2)oc2cc(O)cc(O)c12
3: O=c1c(O)c(-c2cc(O)c(O)c(O)c2)oc2cc(O)cc(O)c12
-- ask Ascending by pKd, please. Give the labels in the order requested.
-- reply 1, 2, 3
(1: 4.62, 2: 5.41, 3: 6.38)

---

# TEST TARGET: mCCL2-M (Mus musculus, UniProt P10148, P31A)
# PROTOCOL DESCRIPTION: Flavonol fluorescence quenching titration of mCCL2 monomer
# Assay type: binding, murine
# TEST CONTEXT: dissociation constant (Kd), mCCL2-M (monomer), double-logarithmic plot, 25 °C
MEASUREMENT KIND: Kd (nM)
Write the value in nM as a bare number.

-- ask State Kd on mCCL2-M (Mus musculus, UniProt P10148, P31A). Entry: "O=c1c(O)c(-c2cc(O)c(O)c(O)c2)oc2cc(O)cc(O)c12"
-- reply 400

---

Entries with reported Kd on UniProt:P13500
MEASUREMENT KIND: Kd (µM)

O=c1c(O)c(-c2ccc(O)cc2)oc2cc(O)cc(O)c12	26

A: O=c1c(O)c(-c2ccc(O)c(O)c2)oc2cc(O)cc(O)c12
B: O=c1c(O)c(-c2cc(O)c(O)c(O)c2)oc2cc(O)cc(O)c12
-- ask Hi there, can you help? I need to know whether A or B has lower measured Kd. Selection: enter the item's label.
-- reply B
